biological target: human D2R long isoform (Homo sapiens); assay: DiscoverX PathHunter β-arrestin recruitment assay, D2R; conditions: triazole; antagonist; read-out: potency, β-arrestin recruitment at the D2R
Sequence (P14416 whole entry, canonical isoform): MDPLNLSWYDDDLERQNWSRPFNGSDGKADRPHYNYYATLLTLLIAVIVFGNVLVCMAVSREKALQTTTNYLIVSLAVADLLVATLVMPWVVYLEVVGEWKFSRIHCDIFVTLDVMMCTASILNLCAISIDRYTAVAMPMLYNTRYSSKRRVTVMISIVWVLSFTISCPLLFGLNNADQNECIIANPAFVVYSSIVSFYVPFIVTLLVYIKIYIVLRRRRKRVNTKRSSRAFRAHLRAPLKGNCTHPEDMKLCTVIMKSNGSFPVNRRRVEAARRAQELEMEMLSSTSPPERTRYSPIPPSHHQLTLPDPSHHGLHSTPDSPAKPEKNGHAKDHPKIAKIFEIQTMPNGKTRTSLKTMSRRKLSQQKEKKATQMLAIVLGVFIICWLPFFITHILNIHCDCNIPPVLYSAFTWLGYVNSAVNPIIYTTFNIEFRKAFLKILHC
pIC50: −log10 of the molar value.
quantity_kind: pIC50

| smiles_input | test_result |
| --- | --- |
| Cc1cccc(-n2cc(CN3CCC(c4ccccc4)CC3)nn2)c1 | < 5.22 |

----------
biological target: human D3R (Homo sapiens); assay: DiscoverX PathHunter β-arrestin recruitment assay, D3R; details: triazole; antagonist; read-out: potency, β-arrestin recruitment at the D3R
Sequence (P35462 whole entry): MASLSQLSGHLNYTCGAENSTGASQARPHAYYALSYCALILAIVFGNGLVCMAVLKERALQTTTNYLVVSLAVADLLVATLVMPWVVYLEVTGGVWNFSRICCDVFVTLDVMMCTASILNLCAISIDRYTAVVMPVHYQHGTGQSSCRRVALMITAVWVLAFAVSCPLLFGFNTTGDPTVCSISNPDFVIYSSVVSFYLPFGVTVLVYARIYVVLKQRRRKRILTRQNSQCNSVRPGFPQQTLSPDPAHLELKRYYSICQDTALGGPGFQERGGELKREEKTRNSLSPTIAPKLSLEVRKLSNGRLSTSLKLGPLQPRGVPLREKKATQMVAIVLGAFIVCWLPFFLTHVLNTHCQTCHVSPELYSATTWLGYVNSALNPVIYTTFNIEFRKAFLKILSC
pIC50: −log10 of the molar value.
quantity_kind: pIC50

| compound | test_result |
| --- | --- |
| Cc1cccc(-n2cc(CN3CCC(c4ccccc4)CC3)nn2)c1 [Compound 14] | < 5.22 |
